Values from a melting point compilation (Tetko et al.; mined from patent text by program, amines drawn as free bases though some values may be those of a salt)

PARAMETER: melting point

Examples with their reported melting point follow.
Ask: Consider the compound shown here: `CC(C)(C)N(NC(=O)c1ccccc1)C(=S)c1ccccc1` What is its recorded melting point?
Reply: 169 to 171 °C

Ask: Consider the compound shown here: `COc1ccc(NC(C)=C(C#N)C#N)cc1` What is its recorded melting point?
Reply: 254 to 255 °C

Ask: Consider the compound shown here: `Cc1cc(OCCC[Si](C)(C)C)c(Cl)cc1N(C#N)C=N` What is its recorded melting point?
Reply: 143 to 144 °C

Ask: Consider the compound shown here: `Cc1ccc(-c2cn(C)c(-c3nc(-c4ccc(C)s4)cn3C)n2)s1` What is its recorded melting point?
Reply: 220 to 228 °C

Ask: Consider the compound shown here: CC(=O)OC1C=C(C)C(=O)CC(C)(C)C1OC(=O)C=Cc1ccccc1 (stereo unspecified) What is its recorded melting point?
Reply: 64 to 65 °C

Ask: Consider the compound shown here: `Nc1ccc(CN2CCN(c3ccc(F)cc3)CC2)cc1` What is its recorded melting point?
Reply: 130 to 132 °C

Ask: Consider the compound shown here: `CCSc1ccc(Cl)nc1C#N` What is its recorded melting point?
Reply: 79 to 81 °C

Ask: Consider the compound shown here: CCCCC(=O)Nc1c(C)c(C)c2c(c1C)C(c1ccc(C)cc1)C(C)(C)O2 (stereo unspecified) What is its recorded melting point?
Reply: 156 to 157 °C

Next:
Ask: Consider the compound shown here: `CN(C)c1ccc(NS(=O)(=O)c2cccc(Br)c2)cc1` What is its recorded melting point?
Reply: 187 to 189 °C

Ask: Consider the compound shown here: CC(CCNC(=O)c1ccc(Oc2ccc(F)cc2)o1)N(O)C(N)=O (stereo unspecified) What is its recorded melting point?
Reply: 161 to 163 °C

Ask: Consider the compound shown here: `CC1(C)Oc2cc3c(cc2O1)OC(C)(C)O3` What is its recorded melting point?
Reply: 122 °C

* * *

Recorded melting point, one value per entry.

Ask: Consider the molecule shown here: `O=C(c1cncc(Br)c1)N1CCC(=C2c3ccc(Cl)cc3CCc3cccnc32)CC1` What is its recorded melting point?
Reply: 87.5 to 96.4 °C

Ask: Consider the molecule shown here: `CCCCC(=NNC(N)=S)OCC` What is its recorded melting point?
Reply: 73 to 74.5 °C

Ask: Consider the molecule shown here: CCCCn1c(=O)c2c(ncn2S(=O)(=O)CC23CCC(CC2=O)C3(C)C)n(CCCC)c1=O (configuration not stated) What is its recorded melting point?
Reply: 55 to 56 °C

Ask: Consider the molecule shown here: `O=[N+]([O-])c1cncn1CCO` What is its recorded melting point?
Reply: 101 to 102 °C

Ask: Consider the molecule shown here: CC(C)(C)OC(=O)N1CCCC(c2ncc(-c3cnc(-c4ccccc4)nc3)[nH]2)C1 (configuration not stated) What is its recorded melting point?
Reply: 130 °C

Ask: Consider the molecule shown here: `Cc1[nH]cnc1/C=C/C(=O)c1coc2ccccc12` What is its recorded melting point?
Reply: 192 to 193 °C

Ask: Consider the molecule shown here: `Nc1c(NCCCO)cccc1OCc1ccccc1` What is its recorded melting point?
Reply: 82 to 83 °C

Ask: Consider the molecule shown here: `CCC(=O)c1ccc(=O)[nH]c1C=CN(C)C` What is its recorded melting point?
Reply: 204 to 206 °C

Ask: Consider the molecule shown here: `COc1cc(C(C)(C)C(N)=O)cc2c1OC(C)(C)C2` What is its recorded melting point?
Reply: 112 to 113 °C

Ask: Consider the molecule shown here: `O=C(NC(=O)c1cc(F)ccc1Cl)Nc1ccc(OC(F)(F)F)cc1` What is its recorded melting point?
Reply: 199 °C

Next:
Ask: Consider the molecule shown here: `CCOC(=O)c1nccc(N)n1` What is its recorded melting point?
Reply: 101 to 104 °C

Ask: Consider the molecule shown here: `COc1cccc(-c2cc3cnc(N)nc3nc2N)c1` What is its recorded melting point?
Reply: 284 to 286 °C

Ask: Consider the molecule shown here: `CCC1(CC)C(=O)N(C(C)(C)CO)CC(C)(C)N1OC(C)(C)C#N` What is its recorded melting point?
Reply: 58 to 66 °C

Ask: Consider the molecule shown here: `COC(=O)c1ccc(-c2nn(-c3ccc(C(N)=O)cc3)c3ccccc23)cc1` What is its recorded melting point?
Reply: 267 to 269 °C

Ask: Consider the molecule shown here: CCCCC1CCc2c(OCc3ccc4ccccc4n3)cccc2C1O (configuration not stated) What is its recorded melting point?
Reply: 130 to 133 °C

Ask: Consider the molecule shown here: CCS(=O)(=O)CCON=Cc1nn(-c2c(Cl)cc(C(F)(F)F)cc2Cl)c(N)c1S(C)=O (configuration not stated) What is its recorded melting point?
Reply: 144 to 148 °C
